Data credit: patent US10800789B2

Tested on: NS5A chimeric genotype 2a JFH-1 replicon with genotype 2b MD2b-1 strain NS5A gene (M31 present)
Experiment: Replicon assay, genotype 2b NS5A chimera
Type: cell-based, HCV
Details: Hepatitis C virus, read-out: 2b (s) (nM), genotype 2b MD2b-1 NS5A chimeric replicon (M31), stably replicating replicon cells (s)
Description: Evaluation of Cell-Based Anti-HCV Activity: Antiviral potency (EC50) was determined using a Renilla luciferase (RLuc)-based HCV replicon reporter assay. […] 72 hours later, cells were lysed and Renilla luciferase activity quantified as recommended by the manufacturer (Promega-Madison, Wis.). […]
Measured EC50 values are reported for all entries that follow.
A number alone suffices; assume nM.

{"MOLECULAR_STRING": "COC(=O)N[C@H](C(=O)N1[C@@H](C)CC[C@H]1c1ncc(-c2ccc3c(c2)COc2cc4c(ccc5nc([C@@H]6CC[C@H](C)N6C(=O)[C@H](NC(=O)OC)c6ccccc6)[nH]c54)cc2-3)[nH]1)C(C)C", "DATA_VALUE": 0.081}

Record request: EC50 value, item COC(=O)N[C@H](C(=O)N1[C@H](c2ncc(-c3ccc4c(c3)COc3cc5c(ccc6nc([C@@H]7C[C@@H]8CCC[C@@H]8N7C(=O)[C@@H](NC(=O)OC)C7CCOCC7)[nH]c65)cc3-4)[nH]2)C[C@@H]2CCC[C@@H]21)C(C)C
0.064

* * *

System: NS5A chimeric genotype 2a JFH-1 replicon with genotype 2b MD2b-1 strain NS5A gene (M31 present)
Assay: Replicon assay, genotype 2b NS5A chimera
Type: cell-based, HCV
Details: Hepatitis C virus, read-out: 2b (s) (nM), genotype 2b MD2b-1 NS5A chimeric replicon (M31), stably replicating replicon cells (s)
OUTCOME_MEASURE: EC50 (nM)
A number alone suffices; assume nM.

Record request: EC50 value, item CC[C@H]1CC[C@@H](c2ncc(-c3ccc4c(c3)COc3cc5c(ccc6nc([C@@H]7C[C@H](C)CN7C(=O)[C@@H](NC(=O)OC)[C@@H](C)OC)[nH]c65)cc3-4)[nH]2)N1C(=O)[C@@H](NC(=O)OC)C(C)C
0.775

Record request: EC50 value, item COC[C@H]1C[C@@H](c2ncc(-c3ccc4c(c3)COc3cc5c(ccc6nc([C@@H]7C[C@H](COC)CN7C(=O)[C@@H](NC(=O)OC)[C@@H](C)OC)[nH]c65)cc3-4)[nH]2)N(C(=O)[C@@H](NC(=O)OC)[C@@H](C)OC)C1
0.393

* * *

Test system: NS5A chimeric genotype 1b Con1 replicon with genotype 3a S52 strain NS5A gene
Test: Replicon assay, genotype 3a NS5A chimera
Assay type: cell-based, HCV
Conditions: Hepatitis C virus, read-out: 3a (s), (s); activity range
pEC50: −log10 of the molar value.
OUTCOME_MEASURE: pEC50

Use the examples below as a reference point.
{"COMPOUND": "CC[C@H]1CC[C@@H](c2nc3ccc4cc5c(cc4c3[nH]2)OCc2cc(-c3cnc([C@@H]4C[C@H](C)CN4C(=O)[C@@H](NC(=O)OC)C(C)C)[nH]3)ccc2-5)N1C(=O)[C@@H](NC(=O)OC)C1CCOCC1", "DATA_VALUE": "9.00 to 10.00"}
{"COMPOUND": "CC[C@H]1CC[C@@H](c2ncc(-c3ccc4c(c3)COc3cc5c(ccc6nc([C@@H]7CC[C@H](CC)N7C(=O)[C@@H](NC(=O)OC)C7CCOCC7)[nH]c65)cc3-4)[nH]2)N1C(=O)[C@@H](NC(=O)OC)C(C)C", "DATA_VALUE": "9.00 to 10.00"}
{"COMPOUND": "CC[C@H](C)[C@H](NC(=O)OC)C(=O)N1[C@H](c2nc3ccc4cc5c(cc4c3[nH]2)OCc2cc(-c3cnc([C@@H]4CC[C@H](C)N4C(=O)[C@@H](NC(=O)OC)C4CCOCC4)[nH]3)ccc2-5)C[C@@H]2CCC[C@@H]21", "DATA_VALUE": "9.00 to 10.00"}
{"COMPOUND": "CC[C@H]1CC[C@@H](c2ncc(-c3ccc4c(c3)COc3cc5c(ccc6nc([C@@H]7CC[C@H](C)N7C(=O)[C@@H](NC(=O)OC)[C@@H](C)CC)[nH]c65)cc3-4)[nH]2)N1C(=O)C(NC(=O)OC)C1CCOCC1 (some centres unmarked)", "DATA_VALUE": "9.00 to 10.00"}
{"COMPOUND": "COC(=O)N[C@H](C(=O)N1[C@H](c2ncc(-c3ccc4c(c3)COc3cc5c(ccc6nc([C@@H]7C[C@@H]8CCC[C@@H]8N7C(=O)[C@@H](NC(=O)OC)C7CCOCC7)[nH]c65)cc3-4)[nH]2)C[C@@H]2CCC[C@@H]21)C(C)C", "DATA_VALUE": "> 10.00"}
{"COMPOUND": "COC(=O)N[C@H](C(=O)N1C[C@@H](C)C[C@H]1c1ncc(-c2ccc3c(c2)COc2cc4c(ccc5nc([C@@H]6CC[C@H](C)N6C(=O)[C@@H](NC(=O)OC)[C@@H](C)OC)[nH]c54)cc2-3)[nH]1)C(C)C", "DATA_VALUE": "> 10.00"}
{"COMPOUND": "CC[C@H]1CC[C@@H](c2ncc(-c3ccc4c(c3)COc3cc5c(ccc6nc([C@@H]7C[C@@H]8CCC[C@@H]8N7C(=O)[C@@H](NC(=O)OC)C7CCOCC7)[nH]c65)cc3-4)[nH]2)N1C(=O)[C@@H](NC(=O)OC)C(C)C", "DATA_VALUE": "> 10.00"}
{"COMPOUND": "COC[C@H]1C[C@@H](c2ncc(-c3ccc4c(c3)COc3cc5c(ccc6nc([C@@H]7C[C@H](COC)CN7C(=O)[C@H](NC(=O)OC)c7ccccc7)[nH]c65)cc3-4)[nH]2)N(C(=O)[C@H](NC(=O)OC)c2ccccc2)C1", "DATA_VALUE": "> 10.00"}

Record request: pEC50 value, item COC(=O)N[C@@H](C)C(=O)N1[C@@H](C)CC[C@H]1c1ncc(-c2ccc3c(c2)COc2cc4c(ccc5nc([C@@H]6CC[C@H](C)N6C(=O)[C@@H](NC(=O)OC)C(C)C)[nH]c54)cc2-3)[nH]1
9.00 to 10.00

Record request: pEC50 value, item COC(=O)N[C@H](C(=O)N1C[C@@H](C)C[C@H]1c1ncc(-c2ccc3c(c2)COc2cc4c(ccc5nc([C@@H]6C[C@H](C)CN6C(=O)[C@@H](NC(=O)OC)[C@@H](C)OC)[nH]c54)cc2-3)[nH]1)[C@@H](C)OC
9.00 to 10.00

Record request: pEC50 value, item COC(=O)N[C@H](C(=O)N1C[C@@H](C)C[C@H]1c1nc2ccc3cc4c(cc3c2[nH]1)OCc1cc(-c2cnc([C@@H]3CC[C@H](C)N3C(=O)[C@@H](NC(=O)OC)[C@@H](C)OC)[nH]2)ccc1-4)[C@@H](C)OC
9.00 to 10.00

Record request: pEC50 value, item CC[C@H](C)[C@H](NC(=O)OC)C(=O)N1[C@@H](C)CC[C@H]1c1ncc(-c2ccc3c(c2)COc2cc4c(ccc5nc([C@@H]6CC[C@H](C)N6C(=O)[C@@H](NC(=O)OC)C(C)C)[nH]c54)cc2-3)[nH]1
> 10.00

Record request: pEC50 value, item COC(=O)N[C@H](C(=O)N1CCC[C@H]1c1ncc(-c2ccc3c(c2)COc2cc4c(ccc5nc([C@@H]6CCCN6C(=O)[C@@H](NC(=O)OC)C6CCOCC6)[nH]c54)cc2-3)[nH]1)C1CCOCC1
9.00 to 10.00
